# melting point annotations
Test readout: melting point

- Cc1nnnn1-c1ccc(C(CC2CCCC2)C(=O)Nc2ccc(Br)cn2)cc1F (stereo not drawn) [Example 2]: 73 to 78 °C
- CNC(=O)NC(=O)C(CC1CCCC1)c1ccc(-n2nnnc2C)c(Cl)c1 (stereo not drawn) [Example 11]: 185 to 186 °C
- Cc1nnnn1-c1ccc(C(CC2CCCC2)C(=O)Nc2nccs2)cc1Cl (stereo not drawn) [Example 3]: 190 to 193 °C
- Cc1nnnn1-c1cc(C(CC2CCCC2)C(=O)Nc2nccs2)ccc1S(C)(=O)=O (stereo not drawn) [Example 9]: 148 to 154 °C
- CNC(=O)NC(=O)/C(=C/C1CCCC1)c1ccc(-n2nnnc2C)c(F)c1 [Example 22]: 186 to 192 °C
- Cc1nnnn1-c1ccc(/C(=C\C2CCCC2)C(=O)Nc2nccs2)cc1F [Example 12]: 158 to 162 °C
